System: MOLT-3
Experiment: Antileukemic activity against human leukemia MOLT-3(T-lineage ALL) cell line
Assay type: functional, cell-based
Would you kindly list IC50 for each of these molecules?
Kindly answer with a numeric value in µM, unit omitted.

Exercise: I'd like to know its IC50. The molecule in question is `CSc1nccc(Nc2ccccc2[As](=O)(O)O)n1`
Solution: 2.3

Exercise: I'd like to know its IC50. The molecule in question is `COc1cc2ncnc(Nc3ccc(/N=N/c4ccc([As](=O)(O)O)cc4)cc3)c2cc1OC`
Solution: 13.9

Exercise: I'd like to know its IC50. The molecule in question is `O=[As](O)(O)c1ccc(/N=N/c2ccc(Nc3nc(C(Cl)(Cl)Cl)nc4ccccc34)cc2)cc1`
Solution: 2

Exercise: I'd like to know its IC50. The molecule in question is `CSc1nccc(Nc2ccc(/N=N/c3ccc([As](=O)(O)O)cc3)cc2)n1`
Solution: 4.1

Exercise: I'd like to know its IC50. The molecule in question is `CSc1nccc(Nc2ccc([As](=O)(O)O)cc2)n1`
Solution: 9.1

Exercise: I'd like to know its IC50. The molecule in question is `COc1cc2ncnc(Nc3ccccc3[As](=O)(O)O)c2cc1OC`
Solution: 55.6

Exercise: I'd like to know its IC50. The molecule in question is `O=[As](O)(O)c1ccc(/N=N/c2ccc(Nc3[nH]cnc4ncnc3-4)cc2)cc1`
Solution: 21.6

====

Test system: MOLT-3
Assay: Antileukemic activity against human leukemia MOLT-3(T-lineage ALL) cell line
Type: functional, cell-based
pIC50: −log10 of the molar value.
Would you kindly list pIC50 for each of these compounds?

Exercise: I'd like to know its pIC50. The compound in question is `COc1cc2ncnc(Nc3ccc([As](=O)(O)O)cc3)c2cc1OC`
Solution: < 4.00

Exercise: I'd like to know its pIC50. The compound in question is `O=[As](O)(O)c1ccc(Nc2nc(C(Cl)(Cl)Cl)nc3ccccc23)cc1`
Solution: < 4.00

Exercise: I'd like to know its pIC50. The compound in question is `O=[As](O)(O)c1ccccc1Nc1nc(C(Cl)(Cl)Cl)nc2ccccc12`
Solution: < 4.00
